- target-or-test-system: recombinant human CL receptor/RAMP1 (Homo sapiens, UniProt O60894+Q16602)
- Construct: membranes
- Sequence (Q16602 23-461): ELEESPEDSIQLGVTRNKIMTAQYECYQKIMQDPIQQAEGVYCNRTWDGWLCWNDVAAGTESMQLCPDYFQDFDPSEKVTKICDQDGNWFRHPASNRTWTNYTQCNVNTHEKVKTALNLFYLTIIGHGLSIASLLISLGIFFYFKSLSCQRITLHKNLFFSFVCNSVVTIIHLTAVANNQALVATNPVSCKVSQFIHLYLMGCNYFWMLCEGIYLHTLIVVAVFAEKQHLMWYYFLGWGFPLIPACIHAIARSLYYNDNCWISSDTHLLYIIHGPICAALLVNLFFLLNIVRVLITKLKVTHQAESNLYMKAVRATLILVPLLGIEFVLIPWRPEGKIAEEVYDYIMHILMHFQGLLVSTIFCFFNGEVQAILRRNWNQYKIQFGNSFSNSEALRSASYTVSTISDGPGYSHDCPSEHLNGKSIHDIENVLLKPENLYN
- Sequence (O60894 27-148): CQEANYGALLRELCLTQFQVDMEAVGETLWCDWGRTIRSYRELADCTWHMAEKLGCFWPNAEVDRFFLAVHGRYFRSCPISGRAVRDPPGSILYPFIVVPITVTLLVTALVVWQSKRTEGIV
- protocol-summary: Recombinant receptor binding assay (125I-hCGRP displacement, membranes of HEK 293 cells)
- assay-setup: 10 pM 125I-hCGRP, 3 h at room temperature
observable: Ki (nM)

smiles-text	target-or-test-system	readout-units	Ki
O=C(N[C@H]1C[C@@H](c2cccc(F)c2F)Cn2c(CC(F)(F)F)nnc21)c1cnc2c(c1)C[C@@]1(C2)C(=O)Nc2ncccc21	recombinant human CL receptor/RAMP1 (Homo sapiens, UniProt O60894+Q16602)	nM	0.19
C[C@@H]1[C@H](c2ccccc2)C[C@H](NC(=O)c2cnc3c(c2)C[C@@]2(C3)C(=O)Nc3ncccc32)c2nnc(C3(C(F)(F)F)CC3)n21	recombinant human CL receptor/RAMP1 (Homo sapiens, UniProt O60894+Q16602)	nM	0.36
C[C@@H]1[C@H](c2ccccc2)C[C@H](NC(=O)c2cnc3c(c2)C[C@@]2(C3)C(=O)Nc3ncncc32)c2ncc(C(C)(C)O)n21	recombinant human CL receptor/RAMP1 (Homo sapiens, UniProt O60894+Q16602)	nM	0.56
O=C(N[C@H]1C[C@@H](c2cccc(F)c2F)Cn2c(CC(F)(F)F)cnc21)c1cnc2c(c1)C[C@@]1(C2)C(=O)Nc2ncccc21	recombinant human CL receptor/RAMP1 (Homo sapiens, UniProt O60894+Q16602)	nM	0.05
C[C@@H]1[C@H](c2ccccc2)C[C@H](NC(=O)c2cnc3c(c2)C[C@@]2(C3)C(=O)Nc3ncccc32)c2ncc(C(C)(C)O)n21	recombinant human CL receptor/RAMP1 (Homo sapiens, UniProt O60894+Q16602)	nM	0.14

a: C[C@@H]1[C@H](c2ccccc2)C[C@H](NC(=O)c2cnc3c(c2)C[C@@]2(C3)C(=O)Nc3ncccc32)c2ncc(CC(F)(F)F)n21
b: COC(C)(C)c1cnc2n1C[C@H](c1cccc(F)c1F)C[C@@H]2NC(=O)c1cnc2c(c1)C[C@@]1(C2)C(=O)Nc2ncccc21
Could you point out whether the larger Ki belongs to a or to b ? Answer by quoting the chosen item's label.
a
(a: 0.06 nM, b: 0.02 nM)
